- Measurement Description: A qHTS for Small Molecule Inhibitors of Shiga Toxin
- Run Conditions: Vero cells, Shiga toxin protein synthesis inhibition reporter; at 38.7 µM
Out of some 290,000 compounds screened, about 27,000 (9.3%) were called active. Rule as the data show it: active = inhibition mostly above about 28% (no sharp cut-off); inactive = mostly below about 43%. Many of the other results were omitted from the sample, so actives are more common in it than they were.
Return exactly one item of active, inactive

INSERT INTO results (compound, assigned_label) VALUES
  ('COc1ccc(-c2csc(NC(=O)c3ccc(N4C(=O)CCC4=O)cc3)n2)cc1OC', 'inactive');

Query: recorded result category for O=C(CN1C(=O)S/C(=C\c2ccccc2Cl)C1=O)NC1C=CS(=O)(=O)C1 (stereo not given) in this test
inactive

Query: recorded result category for `COc1ccc2c(c1)C(c1cccs1)=NNC(c1cccnc1)=N2` in this test
inactive

Query: recorded result category for `COc1ccc(-c2csc3nc(-c4ccccc4F)oc(=O)c23)cc1OC` in this test
inactive

Query: recorded result category for O=C(Nc1cccc(Cl)c1Cl)c1ccccc1NC(=O)C1CC=CCC1C(=O)O (stereo not given) in this test
active

Query: recorded result category for `COc1ccc(OC)c(-c2csc(-c3cccs3)n2)c1` in this test
active

Query: recorded result category for `COc1ccc(OC)c(S(=O)(=O)N(C)CC(=O)N2CCN(c3ccccc3)CC2)c1` in this test
inactive

Query: recorded result category for `CN(CC(=O)N1CCN(c2ccccc2)CC1)S(=O)(=O)c1cccs1` in this test
active

Query: recorded result category for `CC(=O)Nc1ccc(NC(=O)COc2ccccc2C(=O)Nc2cccc(Cl)c2Cl)cc1` in this test
inactive

Query: recorded result category for `COc1ccc(OC)c(-c2csc(NC(=O)C3=NNC(=O)CC3)n2)c1` in this test
inactive

---

- Measurement Description: A qHTS for Small Molecule Inhibitors of Shiga Toxin
- Run Conditions: Vero cells, Shiga toxin protein synthesis inhibition reporter; at 38.7 µM, active compounds read high
In all, about 290,000 compounds went through this assay and about 27,000 (9.3%) were called active. This is one part of a sample in which actives are shown more often than they occur.
Label rule met when inhibition is at or above 10%; anything below gets rule not met.

INSERT INTO measurements (compound, assigned_label) VALUES
  ('O=C(NC(=S)N1CCCCC1c1cccnc1)c1ccccc1 (centres undefined)', 'rule not met'),
  ('Cc1ccccc1C(=O)NC(=S)NC1CC1', 'rule met'),
  ('CC[C@H](C)[C@H](NC(=O)[C@@H](N)CCC(=O)O)C(=O)N[C@@H](CC(C)C)C(=O)N[C@@H](CC(=O)O)C(=O)N[C@H](C(=O)N1CCC[C@H]1C(=O)N[C@@H](CO)C(=O)N[C@H](C(=O)O)[C@@H](C)O)C(C)C', 'rule not met'),
  ('O=C1CCCN2N=C(SCC(=O)Nc3ccc(Br)cc3)SC2=N1', 'rule not met'),
  ('Cc1cccc(CN2CCC(CNC(=O)Nc3ccc(F)c(Cl)c3)CC2)c1', 'rule not met'),
  ('CN(C)c1ccc(NC(=O)CN2C3CCCC2CC(NC(=O)c2ccccc2)C3)cc1 (centres undefined)', 'rule met'),
  ('CC1CN(C(=O)CCC(=O)NC2CCN(Cc3ccccc3)CC2)c2ccccc2O1 (centres undefined)', 'rule met'),
  ('O=C(COc1ccccc1[N+](=O)[O-])NC1CC1', 'rule met');

Now turn to the next compound.
API: above_or_equal(metric=inhibition, cutoff=10%) for item `COc1ccc(C2=NS(=O)(=O)N(C)C(C(=O)N3CCCCC3)=C2)cc1`
rule not met
